This collection of values is drawn from patent US20240066027A1.

Measured pIC50, listed per entry for reference.
molecular target: human PAR-2 (hPAR-2) receptor expressed in HEK-293 T cells in an endogenous manner (Homo sapiens, UniProt P55085); construct: human PAR-2 (hPAR-2) receptor expressed in HEK-293 T cells in an endogenous manner; endogenous in cells; test: In vitro human PAR-2 functional antagonist activity using calcium assays (Fluo4AM, FLIPR Tetra); conditions: HEK-293 T cells stimulated by an EC80 of the 2-Furoyl-LIGRLO-NH2 peptide after 10 min incubation with compound; 20 concentrations, duplicate, two independent experiments
Sequence (P55085 26-397): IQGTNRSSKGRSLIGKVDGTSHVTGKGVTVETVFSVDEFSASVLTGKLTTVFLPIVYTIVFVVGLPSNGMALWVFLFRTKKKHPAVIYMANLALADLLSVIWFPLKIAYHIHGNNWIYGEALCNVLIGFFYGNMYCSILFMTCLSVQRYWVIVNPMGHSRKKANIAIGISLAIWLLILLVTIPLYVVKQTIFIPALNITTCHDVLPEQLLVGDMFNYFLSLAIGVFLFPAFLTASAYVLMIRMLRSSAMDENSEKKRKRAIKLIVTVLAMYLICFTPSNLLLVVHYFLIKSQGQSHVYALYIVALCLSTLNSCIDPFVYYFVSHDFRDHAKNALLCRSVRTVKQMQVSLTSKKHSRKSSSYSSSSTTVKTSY
pIC50: −log10 of the molar value.

compound	pIC50
CC(C)(C#N)c1ccnc(N2CCN(C(=O)c3ccc4c(-c5ccc(Cl)c(F)c5)cn(C(C)(C)C)c4n3)C(C)(C)C2)c1	> 7.70
Cc1cc(N2CCN(C(=O)c3ccc4c(-c5ccc(C(F)(F)F)c(F)c5)cn(C(C)(C)C)c4n3)C(C)(C)C2)nc(C)c1C(=O)O	> 7.70
CC(C)Cn1cc(-c2cccc(C#N)c2)c2ccc(C(=O)N3CCNC(=O)C3(C)C)nc21	5.00 to 7.70
CC(C)Cn1cc(-c2ccc3c(c2)OCO3)c2ccc(C(=O)N3CCNC(=O)C3(C)C)nc21	5.00 to 7.70
CC(C)Cc1nn(-c2ccc(Cl)cc2Cl)c2ccc(C(=O)N3CCNC(=O)C3(C)C)nc12	5.00 to 7.70

query: What value of measured pIC50 is listed for O=C(c1ccc2c(-c3ccc(Cl)c(F)c3)cn(CC(F)(F)F)c2n1)N1CCCOCC1 ?
result: < 5.00

query: Next record, please: CC(C)Cn1nc(-c2ccc(Cl)c(F)c2)c2ccc(C(=O)N3CCNC(=O)C3(C)C)cc21
result: 5.00 to 7.70
